- assayed target: T1, Peptide 10 (peanut)
- T1 construct: also called linear Ara h 2 peptide 10
- T1 peptide: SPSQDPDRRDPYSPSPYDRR
- protocol summary: competition ELISA, peptide in solution vs coated Ara h 2

binder | binding result
h37D5 (antibody, V domains shown, Recombinant human IgG; also called hMAb 37D5) VH: EEQLVESGGRLLRPGESLSLSCAAVGFNFGDFGMAWVRQPPGKGLEWVAGINWSGHSTGFVDSMKGRLTISRDSAKSSLFLQMNSLRGEDTAVYYCARVGRLCSGDICDSMGAFDLWGQGTMVTVSS VL: DIQMTQSPSTLSASIGDRVTITCRASQTIDNWLAWYQQRPGKAPKLLIYQASSLQSGVSSRFRGSGSGTEFTLTITSLQPDDFATYYCQKSNGYSRTFGQGTKVEIK | binds
h12G10 (antibody, human IgG1, V domains shown, Recombinant human IgG; also called hMAb 12G10) VH: EVQLLESGGRLLRPGGSLSLSCVASGFYFGDFGMSWVRQVPGKGLEWVSGIDWSGRSTGYVDSMKGRLTISRDNDKSSLYLQMNDLRGEDTAVYYCARVGRLCSGDSCDSMGAFDLWGQGTMVTVSS VL: DIQLTQSPSTLSASIGDSVTITCRASQNIDNWLAWYQQKPGKAPRLLIYKASSLGSGVSSKFRGSGFGTEFTLTITSLQPDDFATYYCQKSNGYSRTFGQGTKVDIK | binds
